TEST TARGET: cysteines in MDA-MB-231 and Ramos cells (Homo sapiens, UniProt Q96N67)
Sequence (Q96N67 whole entry, the tested form may be a part): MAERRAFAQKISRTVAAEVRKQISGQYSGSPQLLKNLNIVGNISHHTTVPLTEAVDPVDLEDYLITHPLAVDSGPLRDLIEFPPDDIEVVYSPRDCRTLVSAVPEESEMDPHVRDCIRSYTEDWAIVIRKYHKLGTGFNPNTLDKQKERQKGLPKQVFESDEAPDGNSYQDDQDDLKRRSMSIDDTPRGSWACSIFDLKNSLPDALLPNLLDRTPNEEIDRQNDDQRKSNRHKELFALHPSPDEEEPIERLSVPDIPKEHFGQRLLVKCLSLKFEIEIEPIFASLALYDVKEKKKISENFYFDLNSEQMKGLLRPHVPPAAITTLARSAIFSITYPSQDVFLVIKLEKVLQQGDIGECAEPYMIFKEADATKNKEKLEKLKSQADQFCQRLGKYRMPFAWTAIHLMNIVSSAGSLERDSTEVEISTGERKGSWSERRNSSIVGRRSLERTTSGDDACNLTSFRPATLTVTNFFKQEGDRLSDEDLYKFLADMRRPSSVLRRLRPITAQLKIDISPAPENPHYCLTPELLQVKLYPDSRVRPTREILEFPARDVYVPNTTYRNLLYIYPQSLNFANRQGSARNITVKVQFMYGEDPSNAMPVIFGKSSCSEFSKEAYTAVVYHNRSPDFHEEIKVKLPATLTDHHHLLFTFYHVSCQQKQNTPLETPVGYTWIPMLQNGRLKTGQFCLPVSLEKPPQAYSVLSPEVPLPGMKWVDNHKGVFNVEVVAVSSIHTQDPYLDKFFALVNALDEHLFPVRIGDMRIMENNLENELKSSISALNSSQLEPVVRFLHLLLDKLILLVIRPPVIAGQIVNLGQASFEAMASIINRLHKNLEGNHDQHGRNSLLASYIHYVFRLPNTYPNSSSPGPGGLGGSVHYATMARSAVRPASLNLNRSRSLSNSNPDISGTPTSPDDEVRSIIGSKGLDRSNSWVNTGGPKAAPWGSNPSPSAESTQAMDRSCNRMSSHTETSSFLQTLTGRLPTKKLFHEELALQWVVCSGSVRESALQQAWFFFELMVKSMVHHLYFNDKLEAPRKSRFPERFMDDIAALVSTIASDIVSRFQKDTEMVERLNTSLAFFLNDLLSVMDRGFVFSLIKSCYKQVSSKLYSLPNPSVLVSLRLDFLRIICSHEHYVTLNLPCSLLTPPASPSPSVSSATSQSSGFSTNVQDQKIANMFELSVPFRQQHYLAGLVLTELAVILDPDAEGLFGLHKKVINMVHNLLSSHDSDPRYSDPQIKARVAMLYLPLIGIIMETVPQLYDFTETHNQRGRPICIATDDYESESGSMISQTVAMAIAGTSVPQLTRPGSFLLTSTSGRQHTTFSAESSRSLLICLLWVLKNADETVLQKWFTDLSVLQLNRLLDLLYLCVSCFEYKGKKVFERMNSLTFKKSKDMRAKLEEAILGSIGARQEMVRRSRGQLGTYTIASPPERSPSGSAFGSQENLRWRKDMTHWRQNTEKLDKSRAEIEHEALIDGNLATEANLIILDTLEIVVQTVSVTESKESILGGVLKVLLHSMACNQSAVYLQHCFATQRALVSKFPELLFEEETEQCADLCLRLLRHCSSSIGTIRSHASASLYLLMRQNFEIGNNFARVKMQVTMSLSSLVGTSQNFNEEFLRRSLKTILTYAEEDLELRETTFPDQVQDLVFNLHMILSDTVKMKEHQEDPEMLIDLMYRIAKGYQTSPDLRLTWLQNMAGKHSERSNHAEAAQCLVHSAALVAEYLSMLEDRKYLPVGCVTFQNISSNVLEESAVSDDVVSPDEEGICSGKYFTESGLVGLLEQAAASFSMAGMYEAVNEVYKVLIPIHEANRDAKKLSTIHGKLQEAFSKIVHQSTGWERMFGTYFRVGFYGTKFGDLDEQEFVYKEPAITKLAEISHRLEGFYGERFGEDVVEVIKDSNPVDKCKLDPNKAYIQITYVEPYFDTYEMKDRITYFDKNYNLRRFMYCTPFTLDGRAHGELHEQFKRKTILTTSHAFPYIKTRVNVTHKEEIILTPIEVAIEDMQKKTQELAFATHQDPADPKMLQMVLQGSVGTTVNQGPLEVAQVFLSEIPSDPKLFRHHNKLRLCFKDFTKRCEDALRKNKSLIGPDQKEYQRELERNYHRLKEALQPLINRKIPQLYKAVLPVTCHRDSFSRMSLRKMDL
ASSAY PROCEDURE: Competitive isoTOP-ABPP in situ (fragment-treated cells)
Assay type: cell-based
CONDITIONS USED: 200 μM, insitu, 231
ASSAY ENDPOINT: isoTOP-ABPP ratio Q96N67_C2125
Quick one: just the number, no unit, thanks!

In: Give its isoTOP-ABPP ratio Q96N67_C2125 value. Item: C=CC(=O)Nc1cc(F)c(N2CCN(C(=O)OC(C)(C)C)CC2)c(F)c1
Out: 1.5

In: Also Cc1ccc(C=C(C#N)C(=O)NCCN2CCOCC2)cc1 , if possible.
Out: 0.7

In: Also CC(C)CCOCCNC(=O)CCl , if possible.
Out: 0.9

In: Also C=CC(=O)N(Cc1cccnc1)c1cc(C(F)(F)F)cc(C(F)(F)F)c1 , if possible.
Out: 0.8

* * *

TEST TARGET: cysteines in MDA-MB-231 and Ramos cells (Homo sapiens, UniProt Q9NY27)
Sequence (Q9NY27 whole entry, the tested form may be a part): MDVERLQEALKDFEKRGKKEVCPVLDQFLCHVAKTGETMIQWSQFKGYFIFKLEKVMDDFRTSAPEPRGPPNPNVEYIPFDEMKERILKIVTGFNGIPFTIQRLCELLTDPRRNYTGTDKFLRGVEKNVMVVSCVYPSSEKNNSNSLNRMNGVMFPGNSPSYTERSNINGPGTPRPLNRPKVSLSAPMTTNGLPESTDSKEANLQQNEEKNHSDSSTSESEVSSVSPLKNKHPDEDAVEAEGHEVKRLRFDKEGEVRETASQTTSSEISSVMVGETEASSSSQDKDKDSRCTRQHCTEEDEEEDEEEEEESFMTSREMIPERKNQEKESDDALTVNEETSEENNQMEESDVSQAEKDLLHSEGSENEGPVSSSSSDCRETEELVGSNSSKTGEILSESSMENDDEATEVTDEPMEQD
ASSAY PROCEDURE: Competitive isoTOP-ABPP in situ (fragment-treated cells)
Format: cell-based
CONDITIONS USED: 200 μM, insitu, 231
ASSAY ENDPOINT: isoTOP-ABPP ratio Q9NY27_C22
Quick one: just the number, no unit, thanks!

Here's what some known entries look like.
In: Give its isoTOP-ABPP ratio Q9NY27_C22 value. Item: CC1CCc2ccccc2N1C(=O)CCl (centres unmarked)
Out: 20.0

In: Also O=C(CCl)Nc1cccc2ncccc12 , if possible.
Out: 2.2

In: Also C=CC(=O)Nc1cc(F)c(N2CCN(C(=O)OC(C)(C)C)CC2)c(F)c1 , if possible.
Out: 1.0

In: Also O=C(CCl)NC(=O)NC12CC3CC(CC(C3)C1)C2 , if possible.
Out: 20.0

Attention now shifts to the item below.
In: Give its isoTOP-ABPP ratio Q9NY27_C22 value. Item: Cc1ccc(C=C(C#N)C(=O)NCCN2CCOCC2)cc1
Out: 0.8

* * *

TEST TARGET: cysteines in MDA-MB-231 and Ramos cells (Homo sapiens, UniProt Q9ULV4)
Sequence (Q9ULV4 whole entry, the tested form may be a part): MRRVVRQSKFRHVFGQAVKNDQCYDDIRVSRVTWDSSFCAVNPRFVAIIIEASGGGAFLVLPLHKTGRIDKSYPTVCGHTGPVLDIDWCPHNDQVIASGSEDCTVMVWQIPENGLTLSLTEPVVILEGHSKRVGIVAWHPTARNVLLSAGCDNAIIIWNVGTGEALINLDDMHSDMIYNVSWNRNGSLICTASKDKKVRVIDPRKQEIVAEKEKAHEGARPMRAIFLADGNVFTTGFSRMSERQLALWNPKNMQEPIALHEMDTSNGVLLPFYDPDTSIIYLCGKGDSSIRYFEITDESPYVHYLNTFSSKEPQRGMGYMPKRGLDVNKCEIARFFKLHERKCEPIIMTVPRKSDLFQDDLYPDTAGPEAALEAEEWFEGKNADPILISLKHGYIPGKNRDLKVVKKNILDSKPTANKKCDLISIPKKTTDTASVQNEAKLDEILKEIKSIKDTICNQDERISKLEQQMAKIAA
ASSAY PROCEDURE: Competitive isoTOP-ABPP in situ (fragment-treated cells)
Type: cell-based
CONDITIONS USED: 200 μM, insitu, 231
met means recorded isoTOP-ABPP ratio Q9ULV4_C420 is 2 or above; not met means it is below 2.

In: API: above_or_equal(metric=isoTOP-ABPP ratio Q9ULV4_C420, cutoff=2) for item O=C(CCl)NC(=O)NC12CC3CC(CC(C3)C1)C2
Out: met

In: Also O=C(CCl)N1CCN(S(=O)(=O)c2ccccc2F)CC1 , if possible.
Out: met

In: Also C=CC(=O)Nc1cc(F)c(N2CCN(C(=O)OC(C)(C)C)CC2)c(F)c1 , if possible.
Out: not met

In: Also O=C(CCl)Nc1cccc2ncccc12 , if possible.
Out: not met

Read the next record carefully.
In: API: above_or_equal(metric=isoTOP-ABPP ratio Q9ULV4_C420, cutoff=2) for item C=CC(=O)N(Cc1cccnc1)c1cc(C(F)(F)F)cc(C(F)(F)F)c1
Out: not met

* * *

TEST TARGET: cysteines in MDA-MB-231 and Ramos cells (Homo sapiens)
Sequence (P35754 1-106): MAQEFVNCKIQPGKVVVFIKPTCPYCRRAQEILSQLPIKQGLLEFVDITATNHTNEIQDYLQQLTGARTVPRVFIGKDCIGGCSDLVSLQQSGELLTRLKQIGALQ
ASSAY PROCEDURE: Competitive isoTOP-ABPP in situ (fragment-treated cells)
Type: cell-based
CONDITIONS USED: 200 μM, insitu, 231
I'd appreciate it if you marked entries t when isoTOP-ABPP ratio P35754_C23 is lower than 0.9 and f when it is not.

Here are 5 compounds together with their reported answers.
In: Lab note: isoTOP-ABPP ratio P35754_C23 threshold 0.9. Does this compound come in strictly under it? CC1CCc2ccccc2N1C(=O)CCl (stereo not shown) [compound 45]
Out: f

In: Also C=CC(=O)N(Cc1cccnc1)c1cc(C(F)(F)F)cc(C(F)(F)F)c1 [compound 31] , if possible.
Out: t

In: Also CC(C)CCOCCNC(=O)CCl [compound 27] , if possible.
Out: t

In: Also Cc1ccc(C=C(C#N)C(=O)NCCN2CCOCC2)cc1 [compound 41] , if possible.
Out: t

In: Also O=C(CCl)NC(=O)NC12CC3CC(CC(C3)C1)C2 [compound 12] , if possible.
Out: f

Next:
In: Lab note: isoTOP-ABPP ratio P35754_C23 threshold 0.9. Does this compound come in strictly under it? COc1ccccc1OCCNC(=O)CCl [compound 28]
Out: f
